Please consider the recorded IC50 for UniProt:P12822 in what follows.
Sequence (P12822 whole entry): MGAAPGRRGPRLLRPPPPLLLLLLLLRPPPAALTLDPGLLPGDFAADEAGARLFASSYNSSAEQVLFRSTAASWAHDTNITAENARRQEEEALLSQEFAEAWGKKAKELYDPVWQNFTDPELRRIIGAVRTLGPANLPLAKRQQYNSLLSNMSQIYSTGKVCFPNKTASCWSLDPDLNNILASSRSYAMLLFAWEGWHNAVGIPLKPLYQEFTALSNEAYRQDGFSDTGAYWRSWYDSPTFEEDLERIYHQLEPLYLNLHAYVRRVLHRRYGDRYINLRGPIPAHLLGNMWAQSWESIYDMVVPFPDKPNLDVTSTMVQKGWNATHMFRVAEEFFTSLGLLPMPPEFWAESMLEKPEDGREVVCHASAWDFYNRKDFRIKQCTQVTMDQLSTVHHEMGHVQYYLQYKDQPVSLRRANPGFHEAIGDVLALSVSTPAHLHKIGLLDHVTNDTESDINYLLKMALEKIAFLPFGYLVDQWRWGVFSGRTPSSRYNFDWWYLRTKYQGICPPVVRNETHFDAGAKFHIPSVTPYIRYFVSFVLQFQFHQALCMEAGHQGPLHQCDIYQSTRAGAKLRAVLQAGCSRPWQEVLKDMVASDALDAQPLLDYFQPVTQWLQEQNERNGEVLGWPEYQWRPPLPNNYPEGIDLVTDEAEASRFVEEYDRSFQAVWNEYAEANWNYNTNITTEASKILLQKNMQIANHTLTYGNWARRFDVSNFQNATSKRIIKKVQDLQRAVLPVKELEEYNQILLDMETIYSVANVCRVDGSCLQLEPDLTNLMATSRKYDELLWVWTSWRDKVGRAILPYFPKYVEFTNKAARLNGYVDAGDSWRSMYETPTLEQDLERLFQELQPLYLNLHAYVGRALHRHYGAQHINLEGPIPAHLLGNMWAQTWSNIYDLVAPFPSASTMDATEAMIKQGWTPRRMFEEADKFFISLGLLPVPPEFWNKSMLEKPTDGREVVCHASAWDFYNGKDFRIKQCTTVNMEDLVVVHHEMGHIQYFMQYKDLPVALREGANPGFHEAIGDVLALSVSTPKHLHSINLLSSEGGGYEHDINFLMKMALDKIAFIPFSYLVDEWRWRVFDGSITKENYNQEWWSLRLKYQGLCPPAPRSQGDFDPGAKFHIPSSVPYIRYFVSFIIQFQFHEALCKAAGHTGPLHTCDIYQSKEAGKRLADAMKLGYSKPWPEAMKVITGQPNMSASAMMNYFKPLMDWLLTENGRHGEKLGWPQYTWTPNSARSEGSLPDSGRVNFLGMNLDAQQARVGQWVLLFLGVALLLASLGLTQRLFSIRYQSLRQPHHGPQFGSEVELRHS
The response must be a number in nM with no trailing unit.

Field: example entries. Status: answers known.
| compound | study.system | IC50 / nM |
| --- | --- | --- |
| CC(C)C[C@H](NC(=O)C(Cc1ccccc1)CN(O)C=O)C(=O)N[C@@H](Cc1ccccc1)C(=O)O (some centres undefined) | UniProt:P12822 | 106 |
| CC(C)C[C@H](NC(=O)C(Cc1ccccc1)CN(O)C(N)=O)C(=O)N[C@@H](Cc1ccccc1)C(=O)O (some centres undefined) | UniProt:P12822 | 529000 |
| CS(=O)(=O)N[C@@H](CCCCN)C(=O)NC[C@H](CC1(C(=O)N[C@@H](Cc2ccc(O)cc2)C(=O)O)CCCC1)C(=O)O | UniProt:P12822 | 7 |

Here is another compound to look at.
Form: Entry = CC(C)[C@H](NCP(=O)(O)O)C(=O)N[C@@H](Cc1ccc(-c2ccccc2)cc1)C(=O)O | System = UniProt:P12822 | IC50 = ____
25
